The molecules below have reported IC50 for rhesus HPH3 (Macaca mulatta).
Reported property: IC50 (µM)

- NNc1nncc2ccccc12 [Hydralazine]: 54
- O=C(O)CNC(=O)C(=O)O [N-oxalylglycine]: 0.66
- O=C(O)CCC(=O)O [Succinate]: 80

###

Assay system: UniProtKB I2CX88
Measurement notes: biochemical
Run conditions: read-out: IC50 HPH1; inhibitory activity against rhesus HPH1
Description: The VBC protein complex was generated by co-expression of Glutathione S-Transferase-VHL (von Hippel Lindau), elongin B and elongin C in Escherichia coli followed by purification of the complex using glutathione affinity resin and size-exclusion chromatography. The HPH enzyme assay is conducted in the well of a 96- or 384-well plate. […] The time-resolved fluorescent signal (excitation at 330 nm; emission at 620 and 665 nm) is read on a plate reader after 1 h of incubation. […]
pIC50: −log10 of the molar value.
Reported property: pIC50

* O=C(O)CCC(=O)O [Succinate] | 3.70

###

Assay system: rhesus HPH1 (Macaca mulatta, UniProt I2CX88)
Sequence (I2CX88 1-426): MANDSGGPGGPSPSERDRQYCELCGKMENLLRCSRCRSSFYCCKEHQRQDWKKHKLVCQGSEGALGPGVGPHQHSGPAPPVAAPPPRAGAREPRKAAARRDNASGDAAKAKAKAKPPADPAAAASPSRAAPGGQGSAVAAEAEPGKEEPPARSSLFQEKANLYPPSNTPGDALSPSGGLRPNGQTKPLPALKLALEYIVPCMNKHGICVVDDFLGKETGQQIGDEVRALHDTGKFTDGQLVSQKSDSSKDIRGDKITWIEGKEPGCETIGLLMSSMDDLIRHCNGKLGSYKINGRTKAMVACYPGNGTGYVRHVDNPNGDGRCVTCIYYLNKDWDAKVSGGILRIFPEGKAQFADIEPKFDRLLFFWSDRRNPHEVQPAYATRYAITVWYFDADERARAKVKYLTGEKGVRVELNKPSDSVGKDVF
Measurement notes: biochemical
Experimental: The VBC protein complex was generated by co-expression of Glutathione S-Transferase-VHL (von Hippel Lindau), elongin B and elongin C in Escherichia coli followed by purification of the complex using glutathione affinity resin and size-exclusion chromatography. The HPH enzyme assay is conducted in the well of a 96- or 384-well plate. […] The time-resolved fluorescent signal (excitation at 330 nm; emission at 620 and 665 nm) is read on a plate reader after 1 h of incubation. […]
pIC50: −log10 of the molar value.
Reported property: pIC50

- NNc1nncc2ccccc12 [Hydralazine]: 3.40

###

Assay system: rhesus HPH2 (Macaca mulatta)
Reported property: IC50 (µM)

- O=C(O)CCC(=O)O [Succinate]: 380
